# System: HIV-1 Env-pseudoviruses (30-strain panel)
# Assay Remarks: Neutralization assay, cross-clade 30-strain panel (Env-pseudoviruses, TZM-bl target cells)
# Format: cell-based
# Condition Description: Human immunodeficiency virus 1, TZM-bl, DJ263.8 (Clade AG); read-out: IC50
Property Label: pIC50
Numbers only, as −log10 of the molar value.

{"Molecule": "O=C(c1ccsc1)N1CCN(C(=O)C2(c3cccc(Cl)c3)CC2)CC1 [Compound 484, reference compound]", "Property Label": "pIC50", "Val": 5.56}

The record that follows has no pIC50 shown yet.
Query: Param readout = pIC50; param system = HIV-1 Env-pseudoviruses (30-strain panel); param query = COc1cnc(-n2cnc(C)n2)c2[nH]cc(C(=O)C(=O)N3CCN(C(=O)c4ccccc4)CC3)c12 ; response: value
Reply: 7.92

* * *

# System: HIV-1 Env-pseudoviruses (30-strain panel)
# Assay Remarks: Neutralization assay, cross-clade 30-strain panel (Env-pseudoviruses, TZM-bl target cells)
# Assay type: cell-based
# Condition Description: Human immunodeficiency virus 1, TZM-bl, KER2008.12 (Clade A); read-out: IC50
Property Label: IC50

Look over these answered cases.
{"Compound": "O=C(c1ccsc1)N1CCN(C(=O)C2(c3cccc(Cl)c3)CC2)CC1 [Compound 484, reference compound]", "IC50": "> 20000 nM"}
{"Compound": "COc1cnc(-c2csc(CN(C)CCCN(C)C)n2)c2[nH]cc(C(=O)C(=O)N3CCC(=C(C#N)c4ccccc4)CC3)c12", "IC50": "165 nM"}
{"Compound": "COc1cnc(-c2csc(C(=O)NCCO)n2)c2[nH]cc(C(=O)C(=O)N3CCC(=C(C#N)c4ccccc4)CC3)c12", "IC50": "11 nM"}
{"Compound": "O=C(C(=O)N1CCN(C(=O)c2ccccc2)CC1)c1c[nH]c2c(F)ccc(Br)c12", "IC50": "> 20000 nM"}

The record that follows has no IC50 shown yet.
Query: Name the reported IC50 value associated with the compound COc1cnc(-n2cnc(C)n2)c2[nH]cc(C(=O)C(=O)N3CCN(C(=O)c4ccccc4)CC3)c12
Reply: 758 nM

* * *

# Test system: HIV-1 Env-pseudoviruses (208-strain panel)
# Assay Remarks: microbe, parasite or virus in culture
# Type: cell-based
# Condition Description: Human immunodeficiency virus 1, TZM-bl, BL01.DG (Clade B); read-out: IC50
Property Label: IC50 (nM)
Numbers only, in nM.

Query: Name the reported IC50 value associated with the compound COc1cnc(-c2csc(C(=O)NCCO)n2)c2[nH]cc(C(=O)C(=O)N3CCC(=C(C#N)c4ccccc4)CC3)c12 [BMS-818251]
Reply: 2960

* * *

# System: HIV-1 Env-pseudoviruses (30-strain panel)
# Assay Remarks: Neutralization assay, cross-clade 30-strain panel (Env-pseudoviruses, TZM-bl target cells)
# Assay type: cell-based
# Condition Description: Human immunodeficiency virus 1, TZM-bl, Geomean, 30-strain panel; read-out: Geometric mean IC50
pIC50: −log10 of the molar value.
What pIC50 was measured for each of the following?

{"Molecule": "COc1cnc(-n2cnc(C)n2)c2[nH]cc(C(=O)C(=O)N3CCN(C(=O)c4ccccc4)CC3)c12", "Measured Target": "HIV-1 Env-pseudoviruses (30-strain panel)", "pIC50": "< 7.40"}
{"Molecule": "O=C(c1ccsc1)N1CCN(C(=O)C2(c3cccc(Cl)c3)CC2)CC1 [Compound 484, reference compound]", "Measured Target": "HIV-1 Env-pseudoviruses (30-strain panel)", "pIC50": "< 4.91"}

State recorded pIC50 for all listed molecules.
1. O=C(C(=O)N1CCN(C(=O)c2ccccc2)CC1)c1c[nH]c2c(F)ccc(Br)c12
2. COc1cnc(-c2csc(C(=O)NCCO)n2)c2[nH]cc(C(=O)C(=O)N3CCC(=C(C#N)c4ccccc4)CC3)c12
3. COc1cnc(-c2csc(CN(C)CCCN(C)C)n2)c2[nH]cc(C(=O)C(=O)N3CCC(=C(C#N)c4ccccc4)CC3)c12

Reply:
1. < 5.17
2. ~8.70
3. < 7.29
